# target-or-system: receptor interacting protein kinase 1 (GST-hRIPK1 (8-327)) (Homo sapiens, UniProt Q13546)
# Construct: GST-hRIPK1 (8-327) enzyme was generated by Proteros GmbH by Baculovirus expression system
# Sequence (Q13546 8-327): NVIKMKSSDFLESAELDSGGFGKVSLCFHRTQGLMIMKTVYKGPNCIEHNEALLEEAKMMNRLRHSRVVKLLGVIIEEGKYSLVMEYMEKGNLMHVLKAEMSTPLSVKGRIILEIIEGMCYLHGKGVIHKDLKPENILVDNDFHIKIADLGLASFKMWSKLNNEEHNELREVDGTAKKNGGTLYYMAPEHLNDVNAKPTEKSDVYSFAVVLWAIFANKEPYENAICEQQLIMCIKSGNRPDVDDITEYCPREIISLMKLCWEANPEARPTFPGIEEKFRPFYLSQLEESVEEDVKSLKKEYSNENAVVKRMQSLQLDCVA
# assay-text: Fluorescent Polarization Binding (FP Binding) assay
# condition-details: 10 nM GST-hRIPK1 (8-327), 5 nM fluorescent-labeled ligand, 30 min at RT
pIC50: −log10 of the molar value.
reported-property: pIC50

In the examples that follow, each entry is paired with its recorded pIC50.
INSERT INTO assay_data (molecule, value_reported) VALUES
  ('CC(C)(C)C(=O)N1OCC[C@H]1c1ccc(C#N)cc1', '> 6.00'),
  ('CC(CC#N)C(=O)N1OCC[C@H]1c1ccc(C#N)cc1 (single isomer, unassigned) [Compound 210]', '5.00 to 6.00'),
  ('Cn1c(C#N)ccc1C(=O)N1OCC[C@@H]1c1ccc(F)cc1', '< 5.00');

Give pIC50 for all molecules that follow.
1. CC1(S(=O)(=O)N2OCC[C@H]2c2ccc(F)nc2)CC1
2. Cc1ncc([C@@H]2CCON2C(=O)C(C)(C)C(F)F)cc1C#N
3. CC(C)(COC(F)(F)F)C(=O)N1OCC[C@H]1c1ccc(F)cc1
4. CC(C)(C)C(=O)N1OCC[C@H]1c1ccc(F)cc1F
5. CC(C)(C)C(=O)N1OCC[C@H]1c1cccnc1F

**Result**
["5.00 to 6.00", "> 6.00", "> 6.00", "> 6.00", "> 6.00"]

Query O=C(N1OCC[C@H]1c1ccc(F)cc1)C1(F)CC1 yields pIC50 of > 6.00
